Test system: ACHN renal
Assay: NCI tumour cell line growth inhibition, 48 h
OBSERVED PROPERTY: TGI

Ask: Which TGI is reported for this compound? COC(=O)[C@H](Cc1ccccc1)NC(=O)c1ccc(CNC(=O)/C=C/c2ccc(OCc3ccccc3)cc2)cc1
Reply: 33 µM

Ask: Which TGI is reported for this compound? CC1C(C)(C)C23CC12C1(OCCO1)C3Br (stereo not drawn)
Reply: > 100 µM

Ask: Which TGI is reported for this compound? COc1cc(C2C=C(c3ccccc3)Oc3cc4c(cc32)OCO4)cc(OC)c1OC (stereo not drawn)
Reply: > 100 µM

Ask: Which TGI is reported for this compound? Cc1ccc(OCC2CO2)c(Br)c1 (stereo not drawn)
Reply: 21.2 µM

Ask: Which TGI is reported for this compound? CC1CCN(C(C)C)P(=S)(Cc2ccccc2)O1 (stereo not drawn)
Reply: > 100 µM

Ask: Which TGI is reported for this compound? CN(C)CCNc1ccc2ncn3c4ccc(O)cc4c(=O)c1c23
Reply: 4.6 µM

Ask: Which TGI is reported for this compound? CN1CCC2(CC1)SSC1(CCN(C)CC1)S2
Reply: > 100 µM

Ask: Which TGI is reported for this compound? Nc1ncnc2c1ncn2[C@H]1C=C[C@@H](NO)C1
Reply: > 100 µM
